// provenance: a melting point compilation (Tetko et al.; mined from patent text by program, amines drawn as free bases though some values may be those of a salt)

Consider the following compounds; for each one, report its melting point.

Could you report melting point for every entry in the following list?
1. Nc1c(O)cc2c(c1[N+](=O)[O-])CCC2
2. C(=C(c1ccccc1)c1ccccc1)C1CCN(CCCCCCCCc2cccnc2)CC1
3. Cc1oc(-c2ccccc2)nc1CCOc1ccc(/C=C/C#N)cn1
4. CC(=O)OCC(=O)N(C)C

1. 196 to 198 °C
2. 54 to 55 °C
3. 116 to 117 °C
4. 52 to 53 °C

Could you report melting point for every entry in the following list?
1. N#Cc1ccc(F)c(-c2ccc(OC(F)(F)F)cc2)c1
2. CON=C1CCC(C)(C)c2cc(C)c(-c3cc(C=C4SC(=O)NC4=O)ccc3Cl)cc21
3. CCOC(=O)c1cc2ccc3sc4ccccc4c3c2n1C
4. Cc1c(NC(=O)CC(C)(C)C)cc2c(c1C)OC(C)(C)C2c1ccc(Br)cc1 (stereo unspecified)
5. Cc1nc(-c2ccccc2)nc(-c2ccc([N+](=O)[O-])cc2)c1C(C)O (stereo unspecified)
6. O=C(O)C(=O)c1ccc(C(F)(F)F)cc1

63.5 to 64.2 °C
252 to 254 °C
85 to 86 °C
171 to 172 °C
146 to 148 °C
63 to 65 °C

Which melting point value belongs to `CC1=CC(=O)C(C)=C(C)C1=O` ?
28 °C

* * *

Consider the following compounds; for each one, report its melting point.

COMPOUND: CCCCc1nc(SCCOC(C)=O)c(C(=O)OCC)[nH]1
melting point: 68 °C

Could you report melting point for every entry in the following list?
1. CCN(CC)c1ccc(C(=O)C(C)(C)N2CCOCC2)cc1
2. CC(=O)Oc1cccc2c1C(=O)c1c(OC(C)=O)cc(-c3nnn[nH]3)cc1C2=O
3. CC1(C)CCCC1CNC(=O)C=Cc1ccc(C(=O)O)cc1 (stereo unspecified)
4. Cc1ccc(N)cc1Nc1nccc(-c2cccnc2)n1
5. COC(=O)COc1cc2c(c(Cl)c1Cl)C(=O)C(c1ccccc1)C2 (stereo unspecified)

["86 to 89 °C", "189 to 190 °C", "138 to 140 °C", "138 to 140 °C", "152 to 153 °C"]

* * *

Consider the following compounds; for each one, report its melting point.

COMPOUND: CC[C@@H](CN1CCCc2cc(Br)ccc21)NS(=O)(=O)c1c(C)cc(C)cc1C
melting point: 135 °C
--
COMPOUND: CCCNc1nc(C#N)c(C#N)nc1-c1ccc(C)cc1
melting point: 115 to 116 °C
--
COMPOUND: O=c1ccn(CCCO)c(CO)c1O
melting point: 138 to 139 °C

Could you report melting point for every entry in the following list?
1. Cn1ccc(S(=O)(=O)NC(C)(C)C)c1C=O
2. O=CC(Nc1ccc2c(c1)OCC(=O)N2)N1CCC(Cc2ccccc2)CC1 (stereo unspecified)

["102 to 103 °C", "172 to 175 °C"]

Which melting point value belongs to `COc1ccc(C(=O)c2ccc(CC(=O)O)n2C)cc1` ?
170 to 171 °C

* * *

Consider the following compounds; for each one, report its melting point.

As a guide, the following entries are already answered.
COMPOUND: Nc1ccc(S(=O)(=O)CI)cc1
melting point: 170 to 172 °C

COMPOUND: CC(=O)Nc1ccc2c(c1)C(c1ccccc1F)=NCc1cnc(C)n1-2
melting point: 326 to 331 °C

COMPOUND: Cc1ccc(NC(=O)Nc2cc(C(C)(C)C)sc2CNC(=O)CN)cc1
melting point: 93 to 96 °C

COMPOUND: CCN(C)C(=O)Nc1ccc2c(c1)C(c1ccccc1F)=NCC(=O)N2C
melting point: 165 to 168 °C

COMPOUND: CCNC(=O)c1ccsc1
melting point: 115 to 117 °C

COMPOUND: COC(=O)C(C=CC(=O)O)=CNc1ccc(Cl)cc1
melting point: 160 to 161 °C

COMPOUND: CC(C)NC1=NS(=O)(=O)c2cc(F)c(Cl)cc2N1
melting point: 282 to 285 °C

COMPOUND: Cc1[nH]c(=O)n(-c2cc(C(=O)OC(C)C)c(Cl)cc2F)c(=O)c1C#N
melting point: 189 to 193 °C

Could you report melting point for every entry in the following list?
1. CCOC1=C(C(=O)N(C)C)S(=O)(=O)N=C1N
2. CC(=O)OC1CSC(Oc2ccc(C)nc2C)C(OC(C)=O)C1OC(C)=O (configuration not stated)
3. FC(F)(F)c1ccc2c(Cl)nccc2n1

1: 221 to 223 °C; 2: 139 to 140 °C; 3: 90 °C

Could you report melting point for every entry in the following list?
1. C[N+]([O-])=C(Cn1cncn1)c1ccccc1
2. CS(=O)(=O)c1ccc(C(CC2CCCC2)C(=O)Nc2ncc(C(N)=O)s2)cc1 (configuration not stated)
3. CCCCCCCc1c(C(=O)OCC)[nH]c(C)c1C
4. CCCCC(=O)NNC(=O)c1ccc([N+](=O)[O-])cc1
5. C[C@@H](C(N)=O)c1ccc(NS(=O)(=O)Cc2ccccc2)cc1
6. Cc1ccccc1OC(C)C(=O)OC1CC(O)C=C2C=CC(C)C(CCC3CC(O)CC(=O)O3)C21 (mixture of isomers)
7. C=C[C@@H]1CCC(=O)N1C(=O)[C@H](Cc1ccccc1)O[Si](C)(C)C(C)(C)C

117 to 119 °C
155 to 160 °C
68 to 69 °C
185 to 187 °C
68 to 70 °C
85 to 87 °C
92 to 93.5 °C

Could you report melting point for every entry in the following list?
1. O=C1NCC2CC1c1ccccc12 (configuration not stated)
2. CC(=O)Oc1c(C)c(C)c2c(c1C)CC(CCI)O2 (racemic)
3. CC(=O)NCC1CN(c2ccc(N3CCC(=CC#N)C(F)C3)c(F)c2)C(=O)O1 (configuration not stated)
4. C=CCO/N=C(\C(=O)OC)c1csc(N)n1

1. 172 to 173 °C
2. 89 to 90 °C
3. 138 to 140 °C
4. 133 to 134 °C
